tested on: OVCAR-5 ovarian; assay: NCI-60 one-dose screen, 48 h (100 = growth as untreated, 0 = no growth, -100 = all killed); conditions: 10 µM unless noted
About 83,000 compounds went through this panel and 20% of them were active in at least one assay; those are over-represented in the sample as a whole.
PARAMETER: growth (%)

{"columns": ["MOLECULE", "PARAMETER", "OBSERVED RESULT"],
 "data": [
  ["CCOC(=O)c1ccc(NC(=O)Nc2nccs2)cc1", "growth", 25.9],
  ["CC(=O)OC(C)c1cccc(C#N)c1 (centres undefined)", "growth", 104],
  ["C=C(OC(C)=O)c1ccccc1", "growth", 106],
  ["Cc1cc2nc(C)c(C)nc2cc1C", "growth", 95.3],
  ["S=C(NCc1ccccc1)N1CCC(CCCC2CCN(C(=S)NCc3ccccc3)CC2)CC1", "growth", 121],
  ["Cc1ccnc(Nc2nc3ccccc3[nH]2)n1", "growth", 95.3],
  ["CC(C)Sc1ncnc2nc[nH]c12", "growth", 101],
  ["CC(=O)c1cccs1", "growth", 103],
  ["CC(C)c1ncc([N+](=O)[O-])n1C", "growth", 103]
]}

* * *

system: COLO 205 colon; experiment: NCI-60 one-dose screen, 48 h (100 = growth as untreated, 0 = no growth, -100 = all killed); conditions: 10 µM unless noted
About 83,000 compounds went through this panel and 20% of them were active in at least one assay; those are over-represented in the sample as a whole. Active and inactive are the calls of the source. Rule for the calls: active = growth percent below 10; inactive = the rest.

{"columns": ["COMPOUND", "growth"],
 "data": [
  ["Cc1ccccc1CC(N)C(=O)O (stereo not drawn)", "114% (inactive)"],
  ["O=C(Oc1ccccc1Cl)c1ccc(Cl)cc1Cl", "104% (inactive)"],
  ["C=CC(C)C(C)(C)O (stereo not drawn)", "110% (inactive)"],
  ["O=C(NCc1ccccc1)c1cccc([N+](=O)[O-])c1", "116% (inactive)"],
  ["CCCCCCCCCCC(=O)CCCCCCCCCC", "107% (inactive)"],
  ["O=S(=O)(O)c1cccnc1", "105% (inactive)"],
  ["C=CC1=NC(C)(C)CC(C)O1 (stereo not drawn)", "116% (inactive)"],
  ["Cc1cc(Nc2ccc3c(c2)OCO3)c2cc3c(cc2n1)OCO3", "-21.3% (active)"],
  ["Cc1cc(Cc2ccccc2)c(O)c(Cc2ccccc2)c1", "106% (inactive)"],
  ["COC(CCCl)c1ccc(Cl)cc1 (stereo not drawn)", "111% (inactive)"],
  ["CCNCC(C)(C)O", "113% (inactive)"],
  ["CCOc1ccc2c(c1)c(C)cc(C)[n+]2CC", "65.5% (inactive)"],
  ["C/C(Cc1ccccc1)=N\\O", "116% (inactive)"],
  ["O=c1n(CC2CO2)c(=O)n(CC2CO2)n1CC1CO1 (stereo not drawn)", "70.1% (inactive)"],
  ["CSCC[C@@H]1C(=O)N(C)[C@H](C(C)(C)C)N1C(=O)c1ccccc1", "113% (inactive)"],
  ["CN(C)c1ccc(/C=C/C(=O)c2ccc(NC(N)=O)cc2)cc1", "112% (inactive)"],
  ["c1ccc(Oc2c3ccccc3nc3ccccc23)cc1", "-10.5% (active)"],
  ["CCC12OC(COc3ccccc3)CN1CCN2c1ccccc1 (stereo not drawn)", "118% [100 µM] (inactive)"],
  ["COc1cccc(C(=O)O)c1OC", "101% (inactive)"],
  ["O=C1NCC2CCCC1C2 (stereo not drawn)", "119% (inactive)"],
  ["Oc1cccnc1CN1CCCC1", "103% (inactive)"],
  ["COC(=O)C1=C(C)C(=O)CC1", "141% (inactive)"],
  ["CC(C)C(=O)OCCOc1ccc(C(C)(C)C)cc1", "108% (inactive)"],
  ["Oc1ccc2ccccc2c1CN1CCOCC1", "106% (inactive)"],
  ["Cc1cccc(C)c1NC(=S)/N=C\\c1c(O)[nH]c(=O)[nH]c1=O", "103% (inactive)"],
  ["C/C(O)=C(/C=N\\C(=S)Nc1ccc(S(=O)(=O)Nc2nccs2)cc1)C(=O)Nc1ccccc1C", "104% (inactive)"],
  ["COc1ccc(C2CC(c3ccccc3)=Nc3ccccc3S2)cc1 (stereo not drawn)", "97.1% (inactive)"],
  ["C=CCc1cc(OC)c(OC)c(OC)c1", "108% (inactive)"]
]}

* * *

tested on: M14 melanoma; assay: NCI-60 one-dose screen, 48 h; details: 10 µM unless noted
The panel holds about 83,000 compounds, 20% with a hit somewhere; the sample as a whole holds those more often. Calls of active or inactive are those of the source. How the source made its calls: active means growth percent below 10; inactive means the rest.
Outcomes: active, inactive

{"columns": ["COMPOUND", "TARGET OR SYSTEM", "CATEGORY LABEL"],
 "data": [
  ["O=S(=O)(O)c1cccnc1", "M14 melanoma", "inactive"],
  ["CSCCC(NC(=O)C(Cl)Cl)C(=O)O (stereo not drawn)", "M14 melanoma", "inactive"],
  ["C=CCc1cc(OC)c(OC)c(OC)c1", "M14 melanoma", "inactive"],
  ["CCN(CC)CCCC(C)NC(=S)N/N=C(\\C)c1ccccn1 (stereo not drawn)", "M14 melanoma", "inactive"],
  ["CCOP(=O)(OCC)/C(=C\\N1C(=O)CC(=O)NC1=S)C(=O)OC", "M14 melanoma", "inactive"],
  ["Cc1ccnc(Nc2nc3ccccc3[nH]2)n1", "M14 melanoma", "inactive"],
  ["CC(=O)C1C(=O)C(=O)N(c2cccc([N+](=O)[O-])c2)C1=O (stereo not drawn)", "M14 melanoma", "inactive"],
  ["CN1CCN(C(=S)S)CC1", "M14 melanoma", "inactive"],
  ["C/C(O)=C(/C=N/C(=S)Nc1ccccc1)C(=O)Nc1ccccc1C", "M14 melanoma", "inactive"],
  ["CCCNS(=O)(=O)c1ccc(Cl)cc1", "M14 melanoma", "inactive"],
  ["Cc1ccc(C)c(CCO)c1", "M14 melanoma", "inactive"],
  ["COc1ccc2c(ccc[n+]2C)c1", "M14 melanoma", "inactive"],
  ["COC(=O)c1ccccc1C(=O)c1c(C)cc(C)cc1C", "M14 melanoma", "inactive"],
  ["CC(=O)N=c1ccc2nc3c(cc(N)c4ccccc43)oc-2c1", "M14 melanoma", "active"],
  ["NS(=O)(=O)c1cc(=O)[nH]c(=O)[nH]1", "M14 melanoma", "inactive"],
  ["O=C(O)CSCC(=O)Nc1cc(C(F)(F)F)ccc1Cl", "M14 melanoma", "inactive"],
  ["CC1CCC(C)(C)c2ccccc21 (stereo not drawn)", "M14 melanoma", "inactive"],
  ["CCOS(=O)(=O)c1ccc([N+](=O)[O-])cc1", "M14 melanoma", "inactive"],
  ["CCNCC(C)(C)O", "M14 melanoma", "inactive"],
  ["CC(C)C(C)(C)C(=O)C(C)(C)C(C)(C)C", "M14 melanoma", "inactive"],
  ["OCCc1ccc(Cl)cc1", "M14 melanoma", "inactive"],
  ["O=C(N/N=C\\c1ccc(Cl)cc1Cl)c1ccncc1", "M14 melanoma", "inactive"],
  ["Cc1cc(Cc2ccccc2)c(O)c(Cc2ccccc2)c1", "M14 melanoma", "inactive"]
]}

* * *

growth reference
system: SK-MEL-2 melanoma; assay: NCI-60 one-dose screen, 48 h (100 = growth as untreated, 0 = no growth, -100 = all killed); conditions: 10 µM unless noted
Compounds without any hit were thinned out: in the full panel of roughly 83,000, 20% have a hit.

{"columns": ["MOLECULE", "growth (%)"],
 "data": [
  ["COc1ccc(C2CC(c3ccccc3)=Nc3ccccc3S2)cc1 (stereo unspecified)", 85.6],
  ["Cc1ccccc1CC(N)C(=O)O (stereo unspecified)", 109],
  ["c1ccc(-c2ccc3ccccc3c2)cc1", 76.6],
  ["Cc1cc(=O)n(Nc2ccccc2)c(O)c1C#N", 96.4],
  ["Nc1ccn(C2CC(N)C(CO)O2)c(=O)n1 (stereo unspecified)", 122],
  ["O=C1C=Cc2ccccc2/C1=C/c1[nH]c(=O)[nH]c1O", 22.9],
  ["CCCCOC(=O)c1ccccc1O", 161],
  ["O=C(NC(=S)N1CC=CCC1)c1ccccc1", 84.4],
  ["CN=S(=O)(OCCCCCOS(=O)(=NC)c1ccc(C)cc1)c1ccc(C)cc1 (stereo unspecified)", 94],
  ["Oc1cc(O)c2c(c1)O[C@H](c1ccc(O)c(O)c1)[C@@H](O)C2", 106],
  ["CCOc1ccc(C(=O)O)cc1", 109]
]}

* * *

System: RPMI-8226 leukemia
Assay: NCI-60 one-dose screen, 48 h
Details: 10 µM unless noted
Description: Growth inhibition of the RPMI-8226 human tumor cell line is measured as a screen for anti-cancer activity. Cells are grown in 96 well plates and exposed to the test compound for 48 hours. Compounds are tested at a single concentration, which is 10^-5 M for most compounds. The reported endpoint is percent growth (GI% or GIPRCNT), where numbers from 0 - 100% represent growth inhibition, and numbers from -100% - 0 represent cell death. For example, a value of 40 represents 60% growth inhibition. […]
This is part of a sample that, as a whole, favours compounds with a hit. Of some 83,000 tested, about 20% had one in any assay. The source made the active and inactive calls. The calls were made as follows: active = growth percent below 10; inactive = the rest.
Outcomes: 1 = active, 0 = inactive

{"columns": ["MOLECULE", "TARGET OR SYSTEM", "CATEGORY LABEL"],
 "data": [
  ["C=C1SC(=Nc2c(C)cccc2C)N(c2nc(Cl)nc(Cl)n2)C12CCCCC2", "RPMI-8226 leukemia", 0],
  ["CC(C)N(CCCC#N)C(C)C", "RPMI-8226 leukemia", 0],
  ["O=S(=O)(O)C(C(I)I)S(=O)(=O)O", "RPMI-8226 leukemia", 0],
  ["O=C(O)c1ccc([N+](=O)[O-])cc1S(=O)(=O)O", "RPMI-8226 leukemia", 0],
  ["CCC(C)c1c(N)n(S(=O)(=O)c2ccc(C)cc2)oc1=O (stereo unspecified)", "RPMI-8226 leukemia", 0],
  ["O=[n+]1ccn([O-])c2ccccc21", "RPMI-8226 leukemia", 0],
  ["O=C(NCCc1ccccc1)/C(=C\\c1ccc(Cl)cc1Cl)NC(=O)c1ccccc1", "RPMI-8226 leukemia", 0],
  ["CC(=O)c1cccc(O)c1", "RPMI-8226 leukemia", 0],
  ["CN(C)c1ccc(O)c2c1CC1CC3C(N(C)C)C(=O)C(C(N)=O)=C(O)C3(O)C(=O)C1=C2O (stereo unspecified)", "RPMI-8226 leukemia", 0],
  ["C[C@H](CCC[C@H](C)OS(=O)(=O)c1ccccc1)OS(=O)(=O)c1ccccc1", "RPMI-8226 leukemia", 0],
  ["O=C1NCC2CCCC1C2 (stereo unspecified)", "RPMI-8226 leukemia", 0],
  ["O=C1C=Cc2ccccc2/C1=C/c1[nH]c(=O)[nH]c1O", "RPMI-8226 leukemia", 0],
  ["CCOC(=O)CO", "RPMI-8226 leukemia", 0],
  ["Nc1ccc2ccccc2c1-c1c(N)ccc2ccccc12", "RPMI-8226 leukemia", 0],
  ["Cc1[nH]nc(C(N)=O)c1[N+](=O)[O-]", "RPMI-8226 leukemia", 0],
  ["CC(C)OCC(CCl)OC(=O)Nc1ccccc1 (stereo unspecified)", "RPMI-8226 leukemia", 0],
  ["CCOc1ccncc1[N+](=O)[O-]", "RPMI-8226 leukemia", 0],
  ["CCOC(=O)/C(C#N)=C\\c1c[nH]c2ccccc12", "RPMI-8226 leukemia", 0],
  ["O=C(O)CC1=CCCCC1", "RPMI-8226 leukemia", 0],
  ["CCN(CC)c1ccc2nc3ccc(N=Nc4ccc(N(C)C)cc4)cc3[n+](-c3ccccc3)c2c1", "RPMI-8226 leukemia", 1],
  ["C1=NCCc2ccccc21", "RPMI-8226 leukemia", 0]
]}

Reference source: PubChem BioAssay (NCI)
